# System Under Test: T1, human PAR-2 (human, UniProt P55085 26-397)
# T1 sequence: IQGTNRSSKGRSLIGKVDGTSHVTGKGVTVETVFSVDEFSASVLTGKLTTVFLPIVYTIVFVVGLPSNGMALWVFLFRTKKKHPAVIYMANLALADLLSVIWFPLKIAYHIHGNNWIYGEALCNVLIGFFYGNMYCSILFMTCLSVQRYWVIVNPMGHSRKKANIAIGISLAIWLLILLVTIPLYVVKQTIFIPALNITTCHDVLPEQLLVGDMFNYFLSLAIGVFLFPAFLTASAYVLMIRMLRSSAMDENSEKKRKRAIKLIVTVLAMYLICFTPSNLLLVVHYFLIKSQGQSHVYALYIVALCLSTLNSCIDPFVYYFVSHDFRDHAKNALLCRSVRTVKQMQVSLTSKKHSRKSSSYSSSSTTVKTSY
# Assay Overview: cell-based or functional assay
Overview of reported IC50, PAR-2 β-arrestin cell assay across a group of binders:
Readout Name: IC50, PAR-2 β-arrestin cell assay (nM)

>>> readout_value("Ab5 (antibody, human IgG4, V domains shown, also called Anti-PAR-2 antibody # 5) VH: QVQLQQPGSELVKPGASVKLSCKASGYTFTNYWMHWVKQRPGQGLEWIGMIHPNSDFSNYNEKFKKKATLTVDKSSSTAYMQLSSLTSEDSAVYFCAKGPNYYGSRYWYFDVWGTGTTVTVSS VL: DIVLTQSPTSLAVSLGQRATISCRASESVDSYGNSFLHWYQQKAGQPPKLLIYRTSNLESGIPARFSGSGSRTDFTLTINPVEADDVATYFCQQSNEDPYTFGGGTKLELK")
23.1
>>> readout_value("Ab360 (antibody, human IgG4, V domains shown, also called Anti-PAR-2 antibody # 360) VH: EVQLVESGGGLVQPGRSLKLSCVASGFTFNNYWMTWIRQAPGKGLEWVASITNTGGSTYYPDSVKGRFTISRDNAKSTLYLQMNSLRSEDTATYYCTREGIRGTGWFAYWGQGTLVTVSS VL: DTVLTQSPALAVSPGERVTISCRASESVRTRMHWYQQRPGQQPKLLIYGASNPESGVPARFSGSGSGTDFTLTIDPVEADDSATYFCHQSWNEYTFGAGTKLELK")
16
>>> readout_value("Ab192 (antibody, human IgG4, V domains shown, also called Anti-PAR-2 antibody # 192) VH: QVQLQQPGTELVKPGASVKLSCKASGYTFTSYWMHWIKQRPGQGLEWIGNINPSSGGTNYNEKFKTKATLTVDKSSSTAYMQLSSLTSEDSAVYYCAGEAYSNYVAWFAYWGQGTLVTVSS VL: ENVLTQSPAIMSASLGEKVTMSCRASSSVNYMYWYQQKSDASPKLWIYYTSNLAPGVPARFSGSGSGTSYSLTISSMEGEDAATYYCQQFTTSPYTFGGGTKLEIK")
100
>>> readout_value("Ab140 (antibody, human IgG4, V domains shown, also called Anti-PAR-2 antibody # 140) VH: EVQLVESGGGLVQPKGSLKLSCAASGFTFNSYAMHWVRQAPGKGLEWVACIRSKSSYYATYYADSVKDRFTISRHDSQSMLYLQMNNLKTEDTAMYYCVREDYYGSSYDYWGQGTTLTVSS VL: QIVLTQSPAIMSASLGERVTMTCTASSSVSSSYLHWYQQKPGSSPKLWIYATSNLASGVPARFSGSGSGTSYSLTISSMEAEDAATYYCHQYHRSPLTFGAGTKLELK")
20.1
>>> readout_value("Ab323 (antibody, human IgG4, V domains shown, also called Anti-PAR-2 antibody # 323) VH: QVQLKESGPGLVQPSQTLSLTCSVSGFSLSTYGIIWVRQPPGKGLEWMGVIWGNGNTHYNSALKSRLSITRDTSKSQVFLKMNNLQTEDTAMYFCGRWRGYKDYPFDYWGQGVMVTVSS VL: DIQMTQSPSFLSASVGDRVTINCKASQNIYKYLDWYQQKLGEAPKLLMYNTNTLHTGIPSRFSGSGSGTDFTLTISSLQPEDVATYFCLQHNSGWTFGGGTKLELK")
2.1
